Catalogue of melting point readings, one per entry.
Structures can show the parent of a compound that is named as a salt.

Clc1ccc(CC2CCN(c3nc4ccccc4[nH]3)CC2)cc1Cl (as salt: salt)
268 to 270 °C
Fc1ccc(Cn2c(N3CCC(Cc4ccccc4)CC3)nc3ccccc32)cc1F
155 to 155.5 °C
OC(c1ccccc1)(c1ccccc1)C1CCN(c2nc3ccccc3[nH]2)CC1
237 to 239 °C
c1ccc(C(c2ccccc2)N2CCN(c3nc4ccccc4[nH]3)CC2)cc1
> 230 °C (dec.)
c1ccc(C(c2ccccc2)C2CCN(c3nc4ccccc4[nH]3)CC2)cc1
256 to 258 °C

Request: Data request, read-out melting point, for FC(F)(F)c1cc(Cn2c(N3CCC(Cc4ccccc4)CC3)nc3ccccc32)ccc1Cl
Result: 124 to 125.5 °C

Request: Also need c1ccc(C(=C2CCN(c3nc4ccccc4[nH]3)CC2)c2ccccc2)cc1 , thanks.
Result: 229 to 230 °C

Request: Repeat with Fc1ccc(C(c2ccc(F)cc2)N2CCN(c3nc4ccccc4[nH]3)CC2)cc1 (as salt: hydrochloride)
Result: > 240 °C (dec.)

Request: Same for c1ccc(CC2CCN(c3nc4ccccc4[nH]3)CC2)cc1
Result: 193 to 194 °C

Request: Further, for Clc1ccc(OC2CCN(c3nc4ccccc4[nH]3)CC2)cc1Cl (as salt: hydrochloride) ?
Result: 297 to 298 °C
